Assay: viability loss in pontine glioma line – cell-based, SU-DIPG-XVII, MIPE5.0, CellTiter-Glo, qHTS, dose response (AID 1347060);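 as to AC50: cells exposed to compound for 48 hours before viability readout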
Details: CellTiter-Glo ATP luminescence
Results filed as inconclusive are left out. The source made the active and inactive calls. The limit is not given here; nearly all actives have AC50 up to about 26 µM.
Hello, when you answer, please use one of the following outcomes: active, inactive

O=C(c1ccc(/C=C/c2n[nH]c3ccccc23)cc1)N1CCNCC1 | active
CC1(C)CNc2cc(NC(=O)c3cccnc3NCc3ccncc3)ccc21 | active
Cc1cc2cc(Oc3ccnc(Nc4cccc(CS(=O)(=O)NCCN(C)C)c4)n3)ccc2[nH]1 | active
C/C=C/C/C=C/CCC(=O)[C@H]1O[C@H]1C(N)=O | active

Task: Lab log entry: `CN[C@@H](C)C(=O)N[C@H]1CN(C(=O)CC(C)C)CC[C@H]2CC[C@@H](C(=O)NC(c3ccccc3)c3ccccc3)N2C1=O` — outcome as called in the assay?
Output: inactive

* * *

// reported inhibition for each item listed
Assay: growth inhibition, single agent or in combination, cell-based, chromothripsis tumors, cisplatin or BGB combos (AID 1671449);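 also: cells exposed for 96 hours; 0% = vehicle DMSO and 100% = killing by high DMSO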
Details: LFS_MB_P medulloblastoma cells, measured here: combination with BGB IC20, at 0.005 µM
// return numeric value only (unit: %, not printed)

Examples with their reported inhibition follow.
O=C(O)[C@H](Cc1c[nH]c2ccccc12)N1C(=O)c2ccccc2C1=O | -13.3
O=C(/C=C/c1cccc(S(=O)(=O)Nc2ccccc2)c1)NO | -0.936
O=C(CCCCCCNC(=O)c1cnc(N(c2ccccc2)c2ccccc2Cl)nc1)NO | -0.623

Task: Consider the compound `N=C1CCCN1Cc1[nH]c(=O)[nH]c(=O)c1Cl` and give its measured inhibition.
Output: 7.99

Task: Consider the compound `CO[C@H]1/C=C/O[C@@]2(C)Oc3c(C)c(O)c4c(O)c(c(/C=N\N5CCN(C6CCCC6)CC5)c(O)c4c3C2=O)NC(=O)/C(C)=C\C=C\[C@H](C)[C@H](O)[C@@H](C)[C@@H](O)[C@@H](C)[C@H](OC(C)=O)[C@@H]1C` and give its measured inhibition.
Output: -7.42

Task: Consider the compound COc1ccc(C(=O)CC2(O)C(=O)Nc3c(Cl)ccc(Cl)c32)cc1 (stereo not given) and give its measured inhibition.
Output: -14.2

Task: Consider the compound `c1cc(Nc2cc(C3CC3)[nH]n2)nc(Nc2ccc3nc[nH]c3c2)n1` and give its measured inhibition.
Output: -28.7

Task: Consider the compound `O=c1cc(N2CCOCC2)oc2c1ccc1ccccc12` and give its measured inhibition.
Output: -21.9

Task: Consider the compound `O=c1cc(N2CCOCC2)oc2c(-c3cccc4c3sc3ccccc34)cccc12` and give its measured inhibition.
Output: -35.2

Task: Consider the compound `COc1ccc(-n2c(SCCCN3C(=O)c4cccc5cccc(c45)C3=O)nnc2-c2ccncc2)cc1` and give its measured inhibition.
Output: 9.58

Task: Consider the compound `COc1ccc(C(=O)C2CCN(CC(=O)N(Cc3nc4c(c(=O)[nH]3)COCC4)CC3CC3)CC2)cc1` and give its measured inhibition.
Output: -22.7

Task: Consider the compound `NC(=O)c1nc(F)c[nH]c1=O` and give its measured inhibition.
Output: -6.89

Task: Consider the compound `Cc1cn([C@@H]2O[C@H](CO)[C@@H](O)[C@@H]2F)c(=O)[nH]c1=O` and give its measured inhibition.
Output: -21.4

Task: Consider the compound `Nc1ncnc2c1c(-c1cnc3[nH]ccc3c1)nn2C1CCCC1` and give its measured inhibition.
Output: -12.8

Task: Consider the compound `CN(C)c1ccc(C(=O)NCCCCCCC(=O)NO)cc1` and give its measured inhibition.
Output: -25.6

Task: Consider the compound `CC(=O)[C@]1(N)Cc2c(O)c3c(c(O)c2[C@@H](O[C@H]2C[C@H](O)[C@H](O)CO2)C1)C(=O)c1ccccc1C3=O` and give its measured inhibition.
Output: -16.8

Task: Consider the compound `Nc1nc2n[nH]nc2c(=O)[nH]1` and give its measured inhibition.
Output: -4.53

Task: Consider the compound `COc1cc(C=O)c([N+](=O)[O-])cc1OC` and give its measured inhibition.
Output: 9.48

Task: Consider the compound `CN(C)C/C=C/C(=O)Nc1ccc(C(=O)Nc2cccc(Nc3ncc(Cl)c(-c4c[nH]c5ccccc45)n3)c2)cc1` and give its measured inhibition.
Output: -29.1

Task: Consider the compound `O=C(COc1cccc2c(=O)[nH]ccc12)c1ccccc1` and give its measured inhibition.
Output: -16.8
